Data origin: patent US20260258084A1

- method-summary: Solubility testing of peptides at different pH
- Assay type: physicochemical
- assay-setup: 50 mM HCl buffer; 50 mM HCl pH 1.2; target concentration 1 mg/ml; 2 hours agitation; read-out: Solubility Buffer pH 1.2
Starred links: 1 amine or outer side, 2 acyl side, 3 side chain; linkers in the order of their positions; H or OH if unused. Positions of bridges follow the written chain, without caps; N, C: chain ends. Non-standard residues stand in square brackets, D forms with d. Residues, ends and D or L forms follow the SMILES beside them. X3 = CN(CCCCC(=O)N[C@@H](CS[*:2])C(=O)[*:1])[*:3]; 2Nal = N[C@@H](Cc1ccc2ccccc2c1)C(=O)O; AEF = NCCOc1ccc(C[C@H](N)C(=O)O)cc1; αMeL = CC(C)C[C@](C)(N)C(=O)O; Aib = CC(C)(N)C(=O)O; Ava = NCCCCC(=O)O
The following compounds are listed with their measured solubility at 2 h values.
Record the value in µg/mL, omitting the unit from your answer.

{"compound": "CC(=O)N[C@H]1CCCCNC(=O)[C@@H]2CSSC[C@H](NC(=O)[C@H](CCC(N)=O)NC(=O)[C@H](Cc3c[nH]c4ccccc34)NC1=O)C(=O)N[C@@H](Cc1ccc(OCCN)cc1)C(=O)N[C@@H](Cc1ccc3ccccc3c1)C(=O)N[C@@](C)(CC(C)C)C(=O)N[C@H](C(=O)N[C@@H](C)C(=O)NCC(N)=O)CCC(=O)N(C)CCCCC(=O)N2 [compound 18] (Ac-KWQC[AEF][2Nal][αMeL]EAG-NH2; linker 1-4-8 via X3)", "unit-name": "µg/mL", "solubility at 2 h": 10}

Switching to the query record.
**Q:** Item under review: COc1ccc(C[C@@H]2NC(=O)[C@@H]3CSSC[C@H](NC(=O)CCCCNC(=O)CC[C@@H](C(=O)N[C@@H](CC(N)=O)C(=O)N[C@@H](CC(N)=O)C(N)=O)NC(=O)C(C)(C)NC(=O)[C@H](Cc4ccc5ccccc5c4)NC2=O)C(=O)N[C@@H](CC(N)=O)C(=O)N[C@@H]([C@@H](C)O)C(=O)N[C@@H](Cc2c[nH]c4ccccc24)C(=O)N[C@@H](CCC(N)=O)C(=O)N3)cc1 [compound 1] ([Ava]CNTWQCY(Me)[2Nal][Aib]ENN-NH2; disulfide 2-7; lactam N-11) . Reported solubility at 2 h?
**A:** 100
